tested on: ACHN renal; experiment: NCI-60 one-dose screen, 48 h (100 = growth as untreated, 0 = no growth, -100 = all killed); settings: 10 µM unless noted
This is part of a sample that, as a whole, favours compounds with a hit. Of some 83,000 tested, about 20% had one in any assay.

| COMPOUND | TARGET_OF_ASSAY | growth, % |
| --- | --- | --- |
| C/C=C/C/C=C/[C@H](C)C[C@H](O)[C@@H]1C[C@@H]2O[C@H]2/C=C/[C@@H]2OC(C)(C)O[C@H]2/C=C/C[C@H](C)CC(=O)O1 | ACHN renal | 38.4 |
| Br/C(=N\Nc1nn[nH]n1)c1ccccc1 | ACHN renal | 92.7 |
| Cn1c2ccccc2c2ccccc21 | ACHN renal | 105 |
| Cc1nc2c(nnn2-c2ccccc2)c2nc(-c3ccccc3)oc(=O)c12 | ACHN renal | 105 |
| CCCCCCCCCCCCCCCCCC1=NCCN1CS(=O)(=O)O | ACHN renal | 47.7 |
| O=C(N/N=C/c1coc2ccccc2c1=O)c1cc2oc(-c3ccccc3)cc2[nH]1 | ACHN renal | 106 |
| CCOC(=O)C1C(=O)C(=O)N(C(C)C)C1C(=O)OCC (stereo not given) | ACHN renal | 94.3 |
| C/C(CCC(=O)O)=N/Nc1ccc([N+](=O)[O-])cc1 | ACHN renal | 36.3 |
| CC(=O)Nc1nc(C)c(C(=O)NNS(=O)(=O)c2ccccc2)s1 | ACHN renal | 115 |
| CC[C@H](Nc1ncnc2nc[nH]c12)c1nc2cccc(NCc3ccc(C(=O)NO)nc3)c2c(=O)n1-c1ccccc1 | ACHN renal | 97 |

----------
test system: SK-MEL-28 melanoma; experiment: NCI-60 one-dose screen, 48 h (100 = growth as untreated, 0 = no growth, -100 = all killed); details: 10 µM unless noted
About 83,000 compounds went through this panel and 20% of them were active in at least one assay; those are over-represented in the sample as a whole.
Listed here: items and their measured growth.

| COMPOUND | growth, % |
| --- | --- |
| CCCC(CCC)Oc1ccc(CCCC2=C(O)c3ccccc3C(=O)C2=O)cc1 | 59.2 |
| NC(=O)c1c(Nc2ccccc2)nn2cc(-c3nc4ccccc4s3)c(N)nc12 | 113 |
| O=C(O)COc1ccc([N+](=O)[O-])cc1Cl | 104 |
| CCCCCCCCCC(C)NC(=O)CCl (configuration not stated) | 95.3 |
| CC(O)CCC(C)[N+](=O)[O-] (configuration not stated) | 98.3 |
| CCCCN(CCC)CCCCCCCCCCN1CCCc2ccccc21 | 118 |
| O=C1Nc2ccccc2/C1=C/c1cn(CC(O)Cn2cc(/C=C3\C(=O)Nc4ccccc43)c3ccccc32)c2ccccc12 (configuration not stated) | -85 |
| COc1cc2oc(-c3ccc(NC(=O)c4ccccc4)cc3)cc(=O)c2c(OC)c1OC | 93.3 |
| COc1ccc2cnc(N)c(C#Cc3cc(C(=O)Nc4ccc(CN5CCN(C)CC5)c(C(F)(F)F)c4)cnc3C)c2c1 | -72.5 |
| CCCCCSc1ccc2nc(NC(=O)OCC)sc2c1 | 61.9 |
| CCn1cc(C(=O)O)c(=O)c2cc(F)c(N3CCN(S(=O)(=O)c4ccc(Cl)cc4)CC3)cc21 | 44.6 |
| Nc1ccc(N=Nc2ccccc2)c2cc(S(=O)(=O)O)ccc12 | 118 |
| COc1ccc(C2C3(C#N)C(N)=NC(=C(C#N)C#N)C23C#N)cc1OC (configuration not stated) | 115 |
| COc1cccc2c1n([O-])c1cccc(OC)c1[n+]2=O | 72.1 |
| c1ccc(Nc2ccccn2)cc1 | 112 |
| O=C1/C(=C\c2cn(-c3nc(N4CCOCC4)nc(N4CCOCC4)n3)c3ccccc23)c2ccccc2N1c1c(Cl)cccc1Cl | 77.2 |
| O=C1Nc2c(c(=O)n(-c3ccccc3)c3ccccc23)C(c2ccc(Cl)cc2)N1 (configuration not stated) | 90.9 |
| Oc1ccccc1/C=N/N=C/c1c(O)ccc2ccccc12 | 101 |
| COc1ccc2c(c1)/C(=C/c1c(-c3cc(OC)c(OC)c(OC)c3)nc3sccn13)C(=O)N2 | 98.8 |
| CCOC(=O)C1=C(C(F)(F)F)NC(=S)NC1CN1C(=O)c2ccccc2C1=O (configuration not stated) | 108 |
| CCOC(=O)CCCCCCCCC(=O)OCC | 110 |
| COc1cc(NC(C)CCCN)c2nccc(C)c2c1OC (configuration not stated) | 117 |
